Tested on: ACHN
Test: NCI 60 panel growth inhibition (SRB), renal cancer
Type: cell-based, human
Cond: 10 μM
The compounds listed here are annotated with their GI%.
Enter your answer as a number in %; do not include the unit.

COc1cccc(-c2nc3ccccc3s2)c1OCC(=O)NN=C1C(=O)Nc2ccc(C)cc21 11.83

Name the recorded GI% of the item "COc1cccc(-c2nc3ccccc3s2)c1OCC(=O)NN=C1C(=O)Nc2ccc(Cl)cc21" in your answer.
26.60

Name the recorded GI% of the item "COc1ccc(-c2nc3ccccc3s2)cc1OCC(=O)NN=C1C(=O)Nc2ccc(Br)cc21" in your answer.
30.78

---

System: UACC-62
Test: NCI 60 panel growth inhibition (SRB), melanoma
Format: cell-based, human
Cond: UACC-62, 10 μM
The compounds listed here are annotated with their GI%.
Enter your answer as a number in %; do not include the unit.

Some solved cases for reference:
Compound	GI% [%]
COc1ccc(-c2nc3ccccc3s2)cc1OCC(=O)NN=C1C(=O)Nc2ccc([N+](=O)[O-])cc21	19.19
COc1ccc2c(c1)C(=NNC(=O)COc1c(OC)cccc1-c1nc3ccccc3s1)C(=O)N2	25.33
O=C(COc1ccccc1-c1nc2ccccc2s1)NN=C1C(=O)Nc2ccc(Br)cc21	25.55
CNC(=O)c1nn(C)c2c1C(C)(C)Cc1cnc(Nc3ccc(N4CCN(C)CC4)cc3)nc1-2 [Milciclib, reference compound]	109.5
Cc1ccc2c(c1)C(=NNC(=O)COc1ccccc1-c1nc3ccccc3s1)C(=O)N2	33.71

Answer briefly: GI% recorded on UACC-62 for "COc1ccc2c(c1)C(=NNC(=O)COc1ccccc1-c1nc3ccccc3s1)C(=O)N2"
28.02

Answer briefly: GI% recorded on UACC-62 for "COc1ccc(-c2nc3ccccc3s2)cc1OCC(=O)NN=C1C(=O)Nc2ccc(Cl)cc21"
12.95

Answer briefly: GI% recorded on UACC-62 for "COc1cccc(-c2nc3ccccc3s2)c1OCC(=O)NN=C1C(=O)Nc2ccc([N+](=O)[O-])cc21"
11.06

Answer briefly: GI% recorded on UACC-62 for "O=C(COc1ccccc1-c1nc2ccccc2s1)NN=C1C(=O)Nc2ccc(Cl)cc21"
10.86

---

System: NCI-H522
Test: NCI 60 panel growth inhibition (SRB), non-small cell lung cancer
Type: cell-based, human
Cond: NCI-H522, 10 μM
Protocol: Screening of cytotoxic activity against a panel of sixty human tumor cell lines The selected compounds by NCI were evaluated for their anticancer activity in a two- stage process. […] Using the seven absorbance measurements [time zero, (Tz), control growth, (C), and test growth in the presence of drug at the five concentration levels (Ti)], the percentage growth is calculated at each of the drug concentrations levels. […] Three dose response parameters are calculated for each experimental agent. […]
The compounds listed here are annotated with their GI%.
Enter your answer as a number in %; do not include the unit.

Compound	Units label	GI%
COc1ccc(-c2nc3ccccc3s2)cc1OCC(=O)NN=C1C(=O)Nc2ccccc21 [Compound 9m]	%	7.23
COc1ccc2c(c1)C(=NNC(=O)COc1c(OC)cccc1-c1nc3ccccc3s1)C(=O)N2 [Compound 9i]	%	7.04

Name the recorded GI% of the item COc1ccc(-c2nc3ccccc3s2)cc1OCC(=O)NN=C1C(=O)Nc2ccc(Br)cc21 [Compound 9r] in your answer.
8.27

---

The compounds listed here are annotated with their GI%.
System: RXF 393
Test: NCI 60 panel growth inhibition (SRB), renal cancer
Format: cell-based, human
Cond: RXF 393, 10 μM
Enter your answer as a number in %; do not include the unit.

Answer briefly: GI% recorded on RXF 393 for "O=C(COc1ccccc1-c1nc2ccccc2s1)NN=C1C(=O)Nc2ccc(Br)cc21"
82.91

Answer briefly: GI% recorded on RXF 393 for "Cc1ccc2c(c1)C(=NNC(=O)COc1ccccc1-c1nc3ccccc3s1)C(=O)N2"
134.59

Answer briefly: GI% recorded on RXF 393 for "COc1ccc2c(c1)C(=NNC(=O)COc1cc(-c3nc4ccccc4s3)ccc1OC)C(=O)N2"
129.01

Answer briefly: GI% recorded on RXF 393 for "COc1ccc2c(c1)C(=NNC(=O)COc1c(OC)cccc1-c1nc3ccccc3s1)C(=O)N2"
15.41

Answer briefly: GI% recorded on RXF 393 for "COc1cccc(-c2nc3ccccc3s2)c1OCC(=O)NN=C1C(=O)Nc2ccccc21"
35.85

Answer briefly: GI% recorded on RXF 393 for "COc1ccc(-c2nc3ccccc3s2)cc1OCC(=O)NN=C1C(=O)Nc2ccc([N+](=O)[O-])cc21"
99.84

Answer briefly: GI% recorded on RXF 393 for "COc1ccc2c(c1)C(=NNC(=O)COc1ccccc1-c1nc3ccccc3s1)C(=O)N2"
23.06

---

System: NCI-H23
Test: NCI 60 panel growth inhibition (SRB), non-small cell lung cancer
Format: cell-based, human
Cond: NCI-H23, 10 μM
The molecules listed here are annotated with their GI%.

Name the recorded GI% of the item "O=C(COc1ccccc1-c1nc2ccccc2s1)NN=C1C(=O)Nc2ccccc21" in your answer.
6.36%

---

Target or test system: CDK1 (Homo sapiens, UniProt P06493)
Sequence (P06493 whole entry, species assumed): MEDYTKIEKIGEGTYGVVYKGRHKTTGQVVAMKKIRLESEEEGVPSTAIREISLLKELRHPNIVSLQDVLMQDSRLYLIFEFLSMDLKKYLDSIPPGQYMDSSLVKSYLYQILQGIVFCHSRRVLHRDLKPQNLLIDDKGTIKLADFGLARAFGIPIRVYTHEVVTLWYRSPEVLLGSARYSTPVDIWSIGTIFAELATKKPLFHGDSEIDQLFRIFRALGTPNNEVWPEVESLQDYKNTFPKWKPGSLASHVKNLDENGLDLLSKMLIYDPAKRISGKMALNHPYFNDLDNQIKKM
Sequence (P14635 whole entry partner, species assumed): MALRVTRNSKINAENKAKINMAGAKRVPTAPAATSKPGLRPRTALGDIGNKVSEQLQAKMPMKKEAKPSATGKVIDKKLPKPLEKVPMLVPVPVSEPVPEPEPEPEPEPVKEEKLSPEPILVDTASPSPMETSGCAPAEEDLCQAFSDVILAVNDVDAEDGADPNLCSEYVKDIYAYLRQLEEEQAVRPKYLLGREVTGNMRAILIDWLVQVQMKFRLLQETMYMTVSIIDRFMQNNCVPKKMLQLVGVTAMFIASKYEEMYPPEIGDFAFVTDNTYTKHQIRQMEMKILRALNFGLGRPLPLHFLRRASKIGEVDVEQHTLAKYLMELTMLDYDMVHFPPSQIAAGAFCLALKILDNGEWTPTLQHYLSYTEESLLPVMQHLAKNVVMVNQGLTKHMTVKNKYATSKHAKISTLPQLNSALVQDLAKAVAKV
Test: Kinase inhibitory activity on CDK1
Type: biochemical
Cond: mean of two independent experiments ± SD
Readout type: IC50 (µM)
Enter your answer as a number in µM; do not include the unit.

Name the recorded IC50 of the item "COc1ccc2c(c1)C(=NNC(=O)COc1cc(-c3nc4ccccc4s3)ccc1OC)C(=O)N2" in your answer.
1.19

---

System: SW-620
Test: NCI 60 panel growth inhibition (SRB), colon cancer
Format: cell-based, human
Cond: SW-620, 10 μM
Readout type: GI%

Some solved cases for reference:
Molecule	GI%
COc1ccc2c(c1)C(=NNC(=O)COc1cc(-c3nc4ccccc4s3)ccc1OC)C(=O)N2 [Compound 9o]	148.26%
Cc1ccc2c(c1)C(=NNC(=O)COc1ccccc1-c1nc3ccccc3s1)C(=O)N2 [Compound 9b]	– (GI% < 5%)
COc1cccc(-c2nc3ccccc3s2)c1OCC(=O)NN=C1C(=O)Nc2ccc([N+](=O)[O-])cc21 [Compound 9j]	– (GI% < 5%)
COc1cccc(-c2nc3ccccc3s2)c1OCC(=O)NN=C1C(=O)Nc2ccc(C)cc21 [Compound 9h]	– (GI% < 5%)
O=C(COc1ccccc1-c1nc2ccccc2s1)NN=C1C(=O)Nc2ccc(Cl)cc21 [Compound 9e]	– (GI% < 5%)
O=C(COc1ccccc1-c1nc2ccccc2s1)NN=C1C(=O)Nc2ccc(Br)cc21 [Compound 9f]	– (GI% < 5%)
COc1ccc2c(c1)C(=NNC(=O)COc1ccccc1-c1nc3ccccc3s1)C(=O)N2 [Compound 9c]	– (GI% < 5%)
COc1ccc2c(c1)C(=NNC(=O)COc1c(OC)cccc1-c1nc3ccccc3s1)C(=O)N2 [Compound 9i]	– (GI% < 5%)
COc1ccc(-c2nc3ccccc3s2)cc1OCC(=O)NN=C1C(=O)Nc2ccc([N+](=O)[O-])cc21 [Compound 9p]	– (GI% < 5%)
CNC(=O)c1nn(C)c2c1C(C)(C)Cc1cnc(Nc3ccc(N4CCN(C)CC4)cc3)nc1-2 [Milciclib, reference compound]	88.5%

Name the recorded GI% of the item COc1ccc(-c2nc3ccccc3s2)cc1OCC(=O)NN=C1C(=O)Nc2ccc(Br)cc21 [Compound 9r] in your answer.
7.61%

---

Tested on: UACC-62
Test: NCI 60 panel growth inhibition (SRB), melanoma
Assay type: cell-based, human
Cond: UACC-62, 10 μM
Readout type: GI% (%)
Enter your answer as a number in %; do not include the unit.

COc1cccc(-c2nc3ccccc3s2)c1OCC(=O)NN=C1C(=O)Nc2ccc(Br)cc21 35.62
O=C(COc1ccccc1-c1nc2ccccc2s1)NN=C1C(=O)Nc2ccccc21 13.82
COc1cccc(-c2nc3ccccc3s2)c1OCC(=O)NN=C1C(=O)Nc2ccc(C)cc21 34.75

Name the recorded GI% of the item "COc1cccc(-c2nc3ccccc3s2)c1OCC(=O)NN=C1C(=O)Nc2ccccc21" in your answer.
46.29

Name the recorded GI% of the item "COc1ccc(-c2nc3ccccc3s2)cc1OCC(=O)NN=C1C(=O)Nc2ccc(C)cc21" in your answer.
13.88

Name the recorded GI% of the item "COc1cccc(-c2nc3ccccc3s2)c1OCC(=O)NN=C1C(=O)Nc2ccc(Cl)cc21" in your answer.
32.61

---

The compounds listed here are annotated with their GI%.
System: OVCAR-4
Test: NCI 60 panel growth inhibition (SRB), ovarian cancer
Format: cell-based, human
Cond: OVCAR-4, 10 μM
Enter your answer as a number in %; do not include the unit.

Some solved cases for reference:
Compound	Units label	GI%
COc1ccc(-c2nc3ccccc3s2)cc1OCC(=O)NN=C1C(=O)Nc2ccc([N+](=O)[O-])cc21	%	13.06
COc1ccc(-c2nc3ccccc3s2)cc1OCC(=O)NN=C1C(=O)Nc2ccccc21	%	16.50
COc1ccc(-c2nc3ccccc3s2)cc1OCC(=O)NN=C1C(=O)Nc2ccc(Cl)cc21	%	25.24

Alright, here's another compound for you.
Name the recorded GI% of the item "COc1cccc(-c2nc3ccccc3s2)c1OCC(=O)NN=C1C(=O)Nc2ccc(Cl)cc21" in your answer.
13.16
